# target_desc: Receptor-type tyrosine-protein phosphatase F (Homo sapiens, UniProt P10586)
# Sequence (P10586 whole entry): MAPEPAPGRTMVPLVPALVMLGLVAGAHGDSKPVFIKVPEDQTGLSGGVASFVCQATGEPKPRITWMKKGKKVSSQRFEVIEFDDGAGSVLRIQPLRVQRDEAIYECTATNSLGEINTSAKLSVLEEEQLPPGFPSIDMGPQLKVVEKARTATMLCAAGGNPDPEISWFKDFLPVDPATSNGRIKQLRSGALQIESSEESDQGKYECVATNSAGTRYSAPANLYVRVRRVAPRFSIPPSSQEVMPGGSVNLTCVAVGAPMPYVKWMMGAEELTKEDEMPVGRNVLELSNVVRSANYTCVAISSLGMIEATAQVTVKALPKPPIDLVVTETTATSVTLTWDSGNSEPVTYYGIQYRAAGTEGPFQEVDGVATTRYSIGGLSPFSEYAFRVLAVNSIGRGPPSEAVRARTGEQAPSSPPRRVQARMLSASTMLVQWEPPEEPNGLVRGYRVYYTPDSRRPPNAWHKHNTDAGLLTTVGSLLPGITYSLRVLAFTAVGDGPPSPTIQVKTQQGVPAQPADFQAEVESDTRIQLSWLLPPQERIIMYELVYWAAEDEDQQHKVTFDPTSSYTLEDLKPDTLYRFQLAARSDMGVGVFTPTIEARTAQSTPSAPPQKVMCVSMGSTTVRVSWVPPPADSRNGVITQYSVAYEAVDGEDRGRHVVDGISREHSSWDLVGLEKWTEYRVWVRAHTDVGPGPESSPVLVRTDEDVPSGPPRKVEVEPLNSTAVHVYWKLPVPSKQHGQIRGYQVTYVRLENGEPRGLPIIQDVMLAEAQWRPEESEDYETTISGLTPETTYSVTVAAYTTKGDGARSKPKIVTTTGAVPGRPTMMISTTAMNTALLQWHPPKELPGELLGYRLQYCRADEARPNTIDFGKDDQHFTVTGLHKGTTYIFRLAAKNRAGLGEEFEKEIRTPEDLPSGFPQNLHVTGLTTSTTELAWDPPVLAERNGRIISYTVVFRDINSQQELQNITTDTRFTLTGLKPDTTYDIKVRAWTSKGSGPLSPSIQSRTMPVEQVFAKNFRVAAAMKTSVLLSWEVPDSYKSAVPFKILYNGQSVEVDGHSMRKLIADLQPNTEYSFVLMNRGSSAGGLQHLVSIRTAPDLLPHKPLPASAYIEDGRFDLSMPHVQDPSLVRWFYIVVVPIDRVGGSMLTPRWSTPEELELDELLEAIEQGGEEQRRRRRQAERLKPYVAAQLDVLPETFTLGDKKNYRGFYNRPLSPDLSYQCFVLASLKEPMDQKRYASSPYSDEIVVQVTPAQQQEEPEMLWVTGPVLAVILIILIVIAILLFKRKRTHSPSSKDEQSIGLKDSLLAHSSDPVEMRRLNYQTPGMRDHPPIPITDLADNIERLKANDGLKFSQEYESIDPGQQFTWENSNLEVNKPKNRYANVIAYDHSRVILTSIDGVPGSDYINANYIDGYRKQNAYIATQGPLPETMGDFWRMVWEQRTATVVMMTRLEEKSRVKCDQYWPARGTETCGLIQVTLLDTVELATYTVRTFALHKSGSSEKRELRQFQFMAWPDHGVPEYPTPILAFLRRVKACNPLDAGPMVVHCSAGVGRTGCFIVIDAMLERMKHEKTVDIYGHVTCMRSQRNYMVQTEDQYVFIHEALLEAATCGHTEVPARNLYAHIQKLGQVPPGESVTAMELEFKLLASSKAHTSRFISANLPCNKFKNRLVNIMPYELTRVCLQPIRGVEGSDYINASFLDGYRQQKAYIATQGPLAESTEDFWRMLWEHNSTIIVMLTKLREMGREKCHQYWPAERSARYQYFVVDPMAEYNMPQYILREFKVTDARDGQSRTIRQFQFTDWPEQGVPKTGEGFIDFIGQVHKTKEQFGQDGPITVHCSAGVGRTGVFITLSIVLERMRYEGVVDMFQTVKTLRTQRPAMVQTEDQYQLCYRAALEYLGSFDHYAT
reported_property: IC50 (µM)

- smiles_str: "O=C(O)[C@H](Cc1ccccc1)Oc1ccc(-c2ccc(-c3c(Cc4ccccc4)oc4ccccc34)cc2)cc1"
  quantitative_result: 3.25

----------
# target_desc: Tyrosine-protein phosphatase non-receptor type 1 (Homo sapiens, UniProt P18031)
# measurement_description: in vitro inhibitory activity against recombinant human Protein Tyrosine Phosphatase 1b
pIC50: −log10 of the molar value.
Catalogue of pIC50 values

- smiles_str: "O=C(O)/C=C\\C(=O)Nc1cc(-c2ccc(-c3c(Cc4ccccc4)oc4ccccc34)cc2)ccc1O"
  pIC50: 6.34
- smiles_str: "O=C(O)CCC(=O)Nc1cc(-c2ccc(-c3c(Cc4ccccc4)oc4ccccc34)cc2)ccc1O"
  pIC50: 6.04

----------
# Tested on: Mus musculus
# measurement_description: percentage decrease in plasma glucose in the ob/ob mouse model at 100 mg/kg/day administered per orally
# Type: functional
# condition_notes: route oral
Each entry below carries its recorded Decrease.

- compound: "O=C(O)C(Cc1ccccc1)Oc1ccc(-c2ccc(-c3c(Cc4ccccc4)oc4ccccc34)cc2)cc1 (stereo not drawn)"
  Decrease (%): 40
- compound: "O=C(O)[C@@H](Cc1ccccc1)Oc1ccc(-c2ccc(-c3c(Cc4ccccc4)oc4ccccc34)cc2)cc1"
  Decrease (%): 35
- compound: "CCCCc1sc2ccccc2c1-c1ccc(-c2ccc(O[C@@H](C(=O)O)c3ccccc3)cc2)cc1"
  Decrease (%): 28
- compound: "CC(Cc1ccccc1)(Oc1ccc(-c2ccc(-c3c(Cc4ccccc4)oc4ccccc34)cc2)cc1)C(=O)O (stereo not drawn)"
  Decrease (%): 28
- compound: "CCCCc1oc2ccccc2c1Cc1ccc2c(Br)c(OC(Cc3ccccc3)C(=O)O)ccc2c1 (stereo not drawn)"
  Decrease (%): 26
- compound: "CCCCc1sc2ccccc2c1-c1ccc(-c2ccc(O[C@H](Cc3ccccc3)C(=O)O)cc2)cc1"
  Decrease (%): 27
- compound: "CCCCc1oc2ccccc2c1C(=O)c1ccc2c(Br)c(OCn3cnnn3)ccc2c1"
  Decrease (%): 25
- compound: "O=C(O)c1ccc(S(=O)(=O)Oc2c(Br)cc(-c3ccc(-c4c(Cc5ccccc5)sc5ccccc45)cc3)cc2Br)cc1O"
  Decrease (%): 25
- compound: "CCCCc1oc2ccccc2c1-c1ccc(-c2ccc(OC(Cc3ccccc3)C(=O)O)cc2)cc1 (stereo not drawn)"
  Decrease (%): 34
- compound: "O=C(O)[C@@H](Cc1ccccc1)Oc1ccc(-c2ccc(-c3c(C(O)c4ccccc4)oc4ccccc34)cc2)cc1 (stereo partly drawn)"
  Decrease (%): -1
- compound: "C[C@@H](Oc1ccc(-c2ccc(-c3c(Cc4ccccc4)oc4ccccc34)cc2)cc1)C(=O)O"
  Decrease (%): 39
- compound: "O=C(O)[C@H](Cc1ccccc1)Oc1ccc(-c2ccc(-c3c(Cc4ccccc4)oc4ccccc34)cc2)cc1"
  Decrease (%): 40
- compound: "O=C(O)[C@@H](Cc1ccccc1)Oc1ccc(-c2ccc(-c3c(Cc4ccccc4)sc4ccccc34)cc2)cc1"
  Decrease (%): 37

----------
# target_desc: Tyrosine-protein phosphatase non-receptor type 1 (Homo sapiens)
# Sequence (P18031 whole entry): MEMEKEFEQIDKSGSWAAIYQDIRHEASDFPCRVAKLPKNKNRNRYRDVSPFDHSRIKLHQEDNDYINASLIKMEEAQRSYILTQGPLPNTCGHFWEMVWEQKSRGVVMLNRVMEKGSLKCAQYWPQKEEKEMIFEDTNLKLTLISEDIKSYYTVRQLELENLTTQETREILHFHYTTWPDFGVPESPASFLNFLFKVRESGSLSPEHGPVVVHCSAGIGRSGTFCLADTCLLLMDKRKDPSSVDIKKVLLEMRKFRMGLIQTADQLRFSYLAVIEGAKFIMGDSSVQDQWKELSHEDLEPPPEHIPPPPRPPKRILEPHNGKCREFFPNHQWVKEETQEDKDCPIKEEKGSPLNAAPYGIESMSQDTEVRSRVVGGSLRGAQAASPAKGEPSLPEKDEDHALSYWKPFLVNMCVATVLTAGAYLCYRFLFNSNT
# measurement_description: In vitro inhibitory activity against human recombinant protein tyrosine phosphatase 1b (PTP1B)
pIC50: −log10 of the molar value.

- compound: "O=C(O)[C@@H](Cc1ccccc1)Oc1ccc(-c2ccc(-c3c(Cc4nccs4)sc4ccccc34)cc2)cc1"
  target_desc: "Tyrosine-protein phosphatase non-receptor type 1 (Homo sapiens)"
  pIC50: 5.94
- compound: "CCCCc1oc2ccccc2c1C(O)c1ccc2cc(O)ccc2c1 (centres undefined)"
  target_desc: "Tyrosine-protein phosphatase non-receptor type 1 (Homo sapiens)"
  pIC50: 5.96
- compound: "Cc1oc(-c2ccc(C(F)(F)F)cc2)nc1-c1ccc(-c2ccc(OCn3cnnn3)cc2)cc1"
  target_desc: "Tyrosine-protein phosphatase non-receptor type 1 (Homo sapiens)"
  pIC50: 6.05
- compound: "O=C(O)[C@@H](Cc1ccccc1)Oc1ccc(-c2ccc(-c3c(Cc4ccccc4)sc4ccccc34)cc2)cc1-c1ccc(Cl)cc1"
  target_desc: "Tyrosine-protein phosphatase non-receptor type 1 (Homo sapiens)"
  pIC50: 7.28
- compound: "O=C(O)[C@@H](Cc1ccccc1)Oc1ccc(-c2ccc(-c3c(Cc4ccc(F)cc4)sc4ccccc34)cc2)cc1"
  target_desc: "Tyrosine-protein phosphatase non-receptor type 1 (Homo sapiens)"
  pIC50: 6.92
- compound: "COc1ccc(-c2cc(-c3ccc(-c4c(Cc5ccccc5)sc5ccccc45)cc3)cc(Br)c2OCC(=O)O)c(OC)c1"
  target_desc: "Tyrosine-protein phosphatase non-receptor type 1 (Homo sapiens)"
  pIC50: 7.33
- compound: "CC(=O)Oc1cc(S(=O)(=O)Oc2ccc(-c3ccc(-c4coc5ccccc45)cc3)cc2)ccc1C(=O)O"
  target_desc: "Tyrosine-protein phosphatase non-receptor type 1 (Homo sapiens)"
  pIC50: 5.94
- compound: "CCCCc1oc2ccccc2c1Cc1ccc2c(I)c(O)ccc2c1"
  target_desc: "Tyrosine-protein phosphatase non-receptor type 1 (Homo sapiens)"
  pIC50: 6.42
- compound: "Oc1c(I)cc(-c2ccc(-c3c(Cc4ccccc4)sc4ccccc34)cc2)cc1I"
  target_desc: "Tyrosine-protein phosphatase non-receptor type 1 (Homo sapiens)"
  pIC50: 6.28
- compound: "CCCCc1sc2ccccc2c1-c1ccc(-c2ccc(O[C@H](Cc3ccccc3)C(=O)O)cc2)cc1"
  target_desc: "Tyrosine-protein phosphatase non-receptor type 1 (Homo sapiens)"
  pIC50: 6.77
- compound: "CCCCCCC(Oc1c(Br)cc(-c2ccc(-c3c(Cc4ccccc4)oc4ccccc34)cc2)cc1Br)C(=O)O (centres undefined)"
  target_desc: "Tyrosine-protein phosphatase non-receptor type 1 (Homo sapiens)"
  pIC50: 7.64
- compound: "CCCCc1oc2ccccc2c1Cc1ccc2cc(O)ccc2c1"
  target_desc: "Tyrosine-protein phosphatase non-receptor type 1 (Homo sapiens)"
  pIC50: 5.89
- compound: "Oc1ccc(-c2ccc(-c3c(Cc4ccc(O)cc4O)sc4ccccc34)cc2)cc1"
  target_desc: "Tyrosine-protein phosphatase non-receptor type 1 (Homo sapiens)"
  pIC50: 6.24
- compound: "O=C(O)COc1ccc(-c2ccc(-c3c(Cc4ccccc4)oc4ccccc34)cc2)cc1C1CCCC1"
  target_desc: "Tyrosine-protein phosphatase non-receptor type 1 (Homo sapiens)"
  pIC50: 6.77

----------
# target_desc: Tyrosine-protein phosphatase non-receptor type 1 (Homo sapiens, UniProt P18031)
# measurement_description: In vitro inhibitory activity against human recombinant protein tyrosine phosphatase 1b (PTP1B)
Reported IC50 values are given for each entry in this list.

- compound: "O=C(O)CCNc1cc(-c2ccc(-c3c(Cc4ccccc4)oc4ccccc34)cc2)ccc1OCCc1ccccc1"
  target_desc: "Tyrosine-protein phosphatase non-receptor type 1 (Homo sapiens, UniProt P18031)"
  unit_tag: "nM"
  IC50: 140
- compound: "O=C(O)c1ccc(S(=O)(=O)Oc2ccc(-c3ccc(-c4c(Cc5ccccc5)oc5ccccc45)cc3)cc2C2CCCC2)cc1O"
  target_desc: "Tyrosine-protein phosphatase non-receptor type 1 (Homo sapiens, UniProt P18031)"
  unit_tag: "nM"
  IC50: 28
- compound: "O=C(c1ccccc1)c1oc2ccccc2c1-c1ccc(-c2ccc(O)cc2)cc1"
  target_desc: "Tyrosine-protein phosphatase non-receptor type 1 (Homo sapiens, UniProt P18031)"
  unit_tag: "nM"
  IC50: 740
- compound: "CCCCc1oc2ccccc2c1Cc1ccc(-c2ccc(OCn3cnnn3)cc2)cc1"
  target_desc: "Tyrosine-protein phosphatase non-receptor type 1 (Homo sapiens, UniProt P18031)"
  unit_tag: "nM"
  IC50: 510
- compound: "CCCCc1sc2ccccc2c1-c1ccc(-c2ccc(O[C@@H](C(=O)O)c3ccccc3)cc2)cc1"
  target_desc: "Tyrosine-protein phosphatase non-receptor type 1 (Homo sapiens, UniProt P18031)"
  unit_tag: "nM"
  IC50: 110
- compound: "Oc1ccc(-c2ccc(-c3c(Cc4ccccc4)oc4ccccc34)cc2)cc1"
  target_desc: "Tyrosine-protein phosphatase non-receptor type 1 (Homo sapiens, UniProt P18031)"
  unit_tag: "nM"
  IC50: 920
- compound: "O=C(O)c1ccccc1C(=O)NCCC(Oc1c(Br)cc(-c2ccc(-c3c(Cc4ccccc4)sc4ccccc34)cc2)cc1Br)C(=O)O (configuration not stated)"
  target_desc: "Tyrosine-protein phosphatase non-receptor type 1 (Homo sapiens, UniProt P18031)"
  unit_tag: "nM"
  IC50: 180
- compound: "COc1ccc(Cc2sc3ccccc3c2-c2ccc(-c3ccc(O[C@H](Cc4ccccc4)C(=O)O)cc3)cc2)cc1OC"
  target_desc: "Tyrosine-protein phosphatase non-receptor type 1 (Homo sapiens, UniProt P18031)"
  unit_tag: "nM"
  IC50: 120
- compound: "O=C(O)[C@H](Cc1ccccc1)Oc1ccc(-c2ccc(-c3c(Cc4ccccc4)oc4ncccc34)cc2)cc1"
  target_desc: "Tyrosine-protein phosphatase non-receptor type 1 (Homo sapiens, UniProt P18031)"
  unit_tag: "nM"
  IC50: 590
- compound: "CC[C@H](Oc1c(Br)cc(-c2ccc(-c3c(Cc4ccccc4)oc4ccccc34)cc2)cc1Br)C(=O)O"
  target_desc: "Tyrosine-protein phosphatase non-receptor type 1 (Homo sapiens, UniProt P18031)"
  unit_tag: "nM"
  IC50: 130
- compound: "Cc1oc(-c2ccc(C(F)(F)F)cc2)nc1-c1ccc(-c2ccc(OCC(=O)O)cc2)cc1"
  target_desc: "Tyrosine-protein phosphatase non-receptor type 1 (Homo sapiens, UniProt P18031)"
  unit_tag: "nM"
  IC50: 800
- compound: "Cc1oc(-c2ccc(C(F)(F)F)cc2)nc1-c1cccc(-c2ccc(OC(Cc3ccccc3)C(=O)O)cc2)c1 (configuration not stated)"
  target_desc: "Tyrosine-protein phosphatase non-receptor type 1 (Homo sapiens, UniProt P18031)"
  unit_tag: "nM"
  IC50: 1600
- compound: "CCOc1ccc(-c2cc(-c3ccc(-c4c(Cc5ccccc5)sc5ccccc45)cc3)ccc2OCC(=O)O)cc1"
  target_desc: "Tyrosine-protein phosphatase non-receptor type 1 (Homo sapiens, UniProt P18031)"
  unit_tag: "nM"
  IC50: 52
- compound: "CCCCc1sc2ccccc2c1-c1ccc(-c2ccc(O)cc2)cc1"
  target_desc: "Tyrosine-protein phosphatase non-receptor type 1 (Homo sapiens, UniProt P18031)"
  unit_tag: "nM"
  IC50: 700
- compound: "Cc1oc(-c2ccc(C(F)(F)F)cc2)nc1-c1ccc2c(Br)c(OCC(=O)O)ccc2c1"
  target_desc: "Tyrosine-protein phosphatase non-receptor type 1 (Homo sapiens, UniProt P18031)"
  unit_tag: "nM"
  IC50: 1300
- compound: "O=C(O)COc1c(Br)cc(-c2ccc(-c3c(Cc4ccccc4)sc4ccccc34)cc2)cc1Br"
  target_desc: "Tyrosine-protein phosphatase non-receptor type 1 (Homo sapiens, UniProt P18031)"
  unit_tag: "nM"
  IC50: 100
- compound: "O=C(O)C(CCN1C(=O)c2ccccc2C1=O)Oc1c(Br)cc(-c2ccc(-c3c(Cc4ccccc4)sc4ccccc34)cc2)cc1Br (configuration not stated)"
  target_desc: "Tyrosine-protein phosphatase non-receptor type 1 (Homo sapiens, UniProt P18031)"
  unit_tag: "nM"
  IC50: 44

Provenance of the data: ChEMBL document CHEMBL1132993
